- target_entity: 5-hydroxytryptamine receptor 2A (Homo sapiens, UniProt P28223); note: assay procedure not described here
- Sequence (P28223 whole entry): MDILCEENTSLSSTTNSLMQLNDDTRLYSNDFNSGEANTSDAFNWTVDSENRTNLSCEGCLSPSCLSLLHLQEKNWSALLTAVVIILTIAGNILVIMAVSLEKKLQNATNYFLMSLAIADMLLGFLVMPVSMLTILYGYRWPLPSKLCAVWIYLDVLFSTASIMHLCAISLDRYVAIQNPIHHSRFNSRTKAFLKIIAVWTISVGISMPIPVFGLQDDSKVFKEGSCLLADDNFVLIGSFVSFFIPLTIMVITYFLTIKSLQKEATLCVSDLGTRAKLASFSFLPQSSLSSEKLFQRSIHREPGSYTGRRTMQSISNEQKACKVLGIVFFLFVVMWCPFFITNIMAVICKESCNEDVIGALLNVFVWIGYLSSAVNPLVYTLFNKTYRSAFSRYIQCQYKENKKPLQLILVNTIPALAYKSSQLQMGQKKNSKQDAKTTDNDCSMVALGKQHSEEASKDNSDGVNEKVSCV
- Type: functional, cell-based
Give AC50 for every item shown.

As a guide, the following entries are already answered.
>  <compound>
CC(C)(C)C(=O)OCC(=O)[C@H]1CC[C@H]2[C@@H]3CCC4=CC(=O)CC[C@]4(C)[C@H]3CC[C@]12C [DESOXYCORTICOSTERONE PIVALATE]

>  <AC50>
> 10 µM

$$$$
>  <compound>
Clc1ccc(C(Cn2ccnc2)OCc2ccsc2Cl)c(Cl)c1 (stereo not given)

>  <AC50>
> 30 µM

$$$$
>  <compound>
O=[N+]([O-])c1ccc(O)c2ncccc12

>  <AC50>
> 30 µM

$$$$
>  <compound>
CCOC(=O)O[C@]1(C(=O)OCCl)CC[C@H]2[C@@H]3CCC4=CC(=O)C=C[C@]4(C)[C@H]3[C@@H](O)C[C@@]21C [LOTEPREDNOL ETABONATE]

>  <AC50>
> 30 µM

$$$$

Then this compound:
What value of AC50 has been reported for the following compound? CC(=O)SC[C@@H](C)C(=O)N1CCC[C@H]1C(=O)N[C@@H](Cc1ccccc1)C(=O)O
> 30 µM
